Consider the following molecules; for each one, report its viability at 50 µM.
# System: MCF7
# protocol: Cytotoxicity against human MCF7 cells assessed as cell survival at 50 uM after 48 hrs by […]
# Type: functional
# test.parameters: MCF7, 48 h, read-out: Survival
Answers are plain numbers, in %.

Completed entries (count: 7):
{"item.smiles": "CC(=O)Cc1nc2c3c(-c4ccc(Br)cc4)cn(-c4ccc(S(N)(=O)=O)cc4)c3ncn2n1", "viability at 50 µM / %": 36.5}
{"item.smiles": "CC1=CC(C)=NN2C=Nc3c(c(-c4ccc(Br)cc4)cn3-c3ccc(S(N)(=O)=O)cc3)C2=N1", "viability at 50 µM / %": 33.2}
{"item.smiles": "N=c1c2c(-c3ccc(Br)cc3)cn(-c3ccc(S(N)(=O)=O)cc3)c2ncn1N", "viability at 50 µM / %": 22.7}
{"item.smiles": "CCOC(=O)C1=C(N)N=C2c3c(-c4ccc(Br)cc4)cn(-c4ccc(S(N)(=O)=O)cc4)c3N=CN2N=C1", "viability at 50 µM / %": 35.3}
{"item.smiles": "N#Cc1c(-c2ccc(Br)cc2)cn(-c2ccc(S(N)(=O)=O)cc2)c1N", "viability at 50 µM / %": 23.3}
{"item.smiles": "NS(=O)(=O)c1ccc(-n2cc(-c3ccc(Br)cc3)c3c2ncn2[nH]c(=O)c(=O)nc32)cc1", "viability at 50 µM / %": 35}
{"item.smiles": "N#Cc1c(N)nn2cnc3c(c(-c4ccc(Br)cc4)cn3-c3ccc(S(N)(=O)=O)cc3)c12", "viability at 50 µM / %": 21.3}

Could you now consider this next molecule?
In: Please supply the value of reported viability at 50 µM for the item CC1=NN2C=Nc3c(c(-c4ccc(Br)cc4)cn3-c3ccc(S(N)(=O)=O)cc3)C2=NC(c2ccccc2)=C1
Out: 27.7

* * *

# Test system: MCF7
# protocol: Cytotoxicity against human MCF7 cells assessed as cell survival at 25 uM after 48 hrs by […]
# Format: functional
# test.parameters: MCF7, 48 h, read-out: Survival
Consider the following molecules; for each one, report its viability at 25 µM.
One number for each entry, in %.

Completed entries (count: 2):
{"item.smiles": "CC1=CC(C)=NN2C=Nc3c(c(-c4ccc(Br)cc4)cn3-c3ccc(S(N)(=O)=O)cc3)C2=N1", "unit.descriptor": "%", "viability at 25 µM": 28.5}
{"item.smiles": "NS(=O)(=O)c1ccc(-n2cc(-c3ccc(Br)cc3)c3c2ncn2nnnc32)cc1", "unit.descriptor": "%", "viability at 25 µM": 29.4}

Could you now consider this next molecule?
In: Please supply the value of reported viability at 25 µM for the item N#CC1=C(N)N=C2c3c(-c4ccc(Br)cc4)cn(-c4ccc(S(N)(=O)=O)cc4)c3N=CN2N=C1
Out: 38

* * *

# System: MCF7
# protocol: Cytotoxicity against human MCF7 cells assessed as cell survival at 50 uM after 48 hrs by […]
# Assay type: functional
# test.parameters: MCF7, 48 h, read-out: Survival
Consider the following molecules; for each one, report its viability at 50 µM.
Answers are plain numbers, in %.

{"item.smiles": "COc1cccc2c1C(=O)c1c(O)c3c(c(O)c1C2=O)C[C@@](O)(C(=O)CO)C[C@@H]3O[C@H]1C[C@H](N)[C@H](O)[C@H](C)O1", "property.measured": "viability at 50 µM", "reported.result": 25.1}
{"item.smiles": "CCOC(=O)c1nc2c3c(-c4ccc(Br)cc4)cn(-c4ccc(S(N)(=O)=O)cc4)c3ncn2n1", "property.measured": "viability at 50 µM", "reported.result": 27.4}

Could you now consider this next molecule?
In: Please supply the value of reported viability at 50 µM for the item NS(=O)(=O)c1ccc(-n2cc(-c3ccc(Br)cc3)c3c2N=CN2NC(=O)CN=C32)cc1
Out: 33.7
